Tested on: Renilla luciferase RNA
Experiment: Barcoded aptazyme variant library screen: un-cleaved Renilla luciferase RNA by barcode read counts, HEK293-T cells
Assay type: cell-based
Conditions: un-cleaved Renilla luciferase RNA, HEK293-T cells cultured with 1 mM theophylline (ON) over without theophylline (OFF); barcode read counts, triplicate
measured metric: Fold change in RNA expression between the ON state and the OFF state (fold)
Give the quantity in fold, number only.

Request: Reported Fold change in RNA expression between the ON state and the OFF state, molecule RA153 (nucleic acid, expressed or natural sequence) DNA: CGAGAATACCAGCATCGTCTTGATGCCCTTGGAAGTCTCGGCGCGTCCTGGATTCGCGGAAACGCGTACATCCAGCTGACGAGTCCCAAATAGGACGAAACGCGC : ____
Response: 1.3

Request: One more molecule: RA132 (nucleic acid, expressed or natural sequence) DNA: GCGCGTCCTGGATTCGCGGAATACCAGCATCGTCTTGATGCCCTTGGAAGTCCGGAAACGCGTACATCCAGCTGACGAGTCCCAAATAGGACGAAACGCGC
Response: 1.4

Request: One more molecule: RA182 (nucleic acid, expressed or natural sequence) DNA: GCGCGTCCTGGATTCGCGGAAACGCGGAGAATACCAGCATCGTCTTGATGCCCTTGGAAGTCTCTACATCCAGCTGACGAGTCCCAAATAGGACGAAACGCGC
Response: 1.3

Request: One more molecule: RA208 (nucleic acid, expressed or natural sequence) DNA: GCGCGTCCTGGATTCGCGGAAACGCGTACATCCAGCTGACGAGTCCCAAACCGGAATACCAGCATCGTCTTGATGCCCTTGGAAGTCCGGTAGGACGAAACGCGC
Response: 1.2

Request: One more molecule: RA235 (nucleic acid, expressed or natural sequence) DNA: GCGCGTCCTGGATTCGCGGAAACGCGTACATCCAGCTGACGAGTCCCAAATAGGAGAGAATACCAGCATCGTCTTGATGCCCTTGGAAGTCTCCGAAACGCGC
Response: 1.1

Request: One more molecule: RA139 (nucleic acid, expressed or natural sequence) DNA: GGAGAATACCAGCATCGTCTTGATGCCCTTGGAAGTCTCCGCGTCCTGGATTCGCGGAAACGCGTACATCCAGCTGACGAGTCCCAAATAGGACGAAACGCGC
Response: 1.4

Request: One more molecule: RA138 (nucleic acid, expressed or natural sequence) DNA: GCGCGGAATACCAGCATCGTCTTGATGCCCTTGGAAGTCCGCGTCCTGGATTCGCGGAAACGCGTACATCCAGCTGACGAGTCCCAAATAGGACGAAACGCGC
Response: 1.4
